compounds and their reported MIC
- System: Klebsiella aerogenes
- assay-procedure: Antimicrobial activity against multidrug resistant Enterobacter aerogenes isolate 22 by broth dilution method
- Type: functional
measured-attribute: MIC (µg/mL)

> print(dat)
                                   compound          study.target  modifier.sign  quantitative.readout
1  C[C@@H](O)[C@H]1C(=O)N2C(C(=O)O)=C(SCCNC=N)C[C@H]12 [IMIPENEM ANHYDROUS]  Klebsiella aerogenes              =                     1
2  O=C(N[C@H](CO)[C@H](O)c1ccc([N+](=O)[O-])cc1)C(Cl)Cl  Klebsiella aerogenes              =                  1020
3  CC(C)(O/N=C(\C(=O)N[C@@H]1C(=O)N2C(C(=O)[O-])=C(C[n+]3ccccc3)CS[C@H]12)c1csc(N)n1)C(=O)O  Klebsiella aerogenes              >                  2050
4  CO/N=C(\C(=O)N[C@@H]1C(=O)N2C(C(=O)[O-])=C(C[N+]3(C)CCCC3)CS[C@H]12)c1csc(N)n1  Klebsiella aerogenes              =                    64

Where do these numbers come from? They come from ChEMBL document CHEMBL1649134.
